# test_details: Components of the Cytosolic LPS Sensing Pathway: Gene Identification via Genome-wide siRNA Screen;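 further: robust z of the log signal after scaling to non-targeting control siRNA wells of the plate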
# settings: RAW264.7 macrophages, IL-1a HTRF, actives lie on both sides, screened at 100 nM (by protocol), cells primed 5 h with Pam3CSK4 first
Out of some 53,000 sequences screened, about 3,700 (7%) were called active. Many of the other results were omitted from the sample, so actives are more common in it than they were.
measure: z-score

sequence_input="GCUUUAUUGACACGACCCGTT against Rbm19" measure=z-score reading="0.184 (inactive)"
sequence_input="GCCGCUAGCAUGGUCUAUUTT against Apoa5" measure=z-score reading="2.51 (active)"
sequence_input="GCCUCUGGCAGAGAAAAGATT against 4930579K19Rik" measure=z-score reading="-1.78 (inactive)"
sequence_input="CCAGAAACCGUGAUAAAAUTT against Immp2l" measure=z-score reading="2.12 (active)"
sequence_input="GGUGGAAAGAGAGAGCUACTT against Slc12a7" measure=z-score reading="0.458 (inactive)"
sequence_input="CCACGACGUACAUCCAUAATT against Tmem181a" measure=z-score reading="-1.02 (inactive)"
sequence_input="GGAGAUUGUUGACCUGGUCTT against Tuba3b" measure=z-score reading="2.03 (active)"
sequence_input="GGUUGUGCAAGAGUAUGAATT against Nphs2" measure=z-score reading="0.316 (inactive)"
sequence_input="CCUUUCAUACCUUAGGUUATT against Slc25a44" measure=z-score reading="-0.42 (inactive)"
sequence_input="GGUUGUUCUUAACAUAACCTT against Ginm1" measure=z-score reading="0.0306 (inactive)"
sequence_input="GGUUGUAACAAACAUACUCTT against Sstr4" measure=z-score reading="2.99 (active)"

###

# test_details: Components of the Cytosolic LPS Sensing Pathway: Gene Identification via Genome-wide siRNA Screen;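 further: robust z of the log signal after scaling to non-targeting control siRNA wells of the plate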
# settings: RAW264.7 macrophages, IL-1a HTRF, actives lie on both sides, screened at 100 nM (by protocol), cells primed 5 h with Pam3CSK4 first
Out of some 53,000 sequences screened, about 3,700 (7%) were called active. The full list was thinned out, with actives kept by preference.
measure: z-score

sequence_input="GGUGUUGAAAGUCAUUGUGTT against Med27" measure=z-score reading=-0.196
sequence_input="GGGUAUUUCCUGGUGGAUUTT against Mrps6" measure=z-score reading=0.221
sequence_input="CCCAGCUAGACAGUCUUUCTT against Il11" measure=z-score reading=2.58
sequence_input="GGCAUUGGAUCUUCAUUUUTT against Slc18a1" measure=z-score reading=2.35
sequence_input="GGCUAACCAGAGGAAAAACTT against Rph3a" measure=z-score reading=-2.19
sequence_input="GGAUUUUGUUGACAAUGAUTT against Ncaph" measure=z-score reading=-0.0936
sequence_input="GGCACAGAAGAAUGAGAGATT against Schip1" measure=z-score reading=0.217
sequence_input="GGAAAUUUUUUCCUUUCCUTT against Olfr211" measure=z-score reading=-0.638
sequence_input="CCAUCGUCCAAAGUACAUGTT against Rbp4" measure=z-score reading=-1.39
sequence_input="GGAGAAGACCAUAAAGAAGTT against Flywch1" measure=z-score reading=-0.554
sequence_input="GCUCAAAUCGUACAAGUGUTT against Panx1" measure=z-score reading=0.214
sequence_input="GGGAUUUAAAGCCAACUUGTT against Sfpq" measure=z-score reading=0.62
sequence_input="GGCCUCAACUAAGAACCCUTT against Pcdh1" measure=z-score reading=-0.298
sequence_input="CGAGAAGGGAUUUUAGAAGTT against A830018L16Rik" measure=z-score reading=-0.92
sequence_input="CCUCUGCUACUCUUAUUGUTT against Ttn" measure=z-score reading=-0.523
sequence_input="GGUAAGGACUAUUUGAAUUTT against Lpar1" measure=z-score reading=-0.429
sequence_input="GCCAUAGCUAUUGUCAUUCTT against Mmp16" measure=z-score reading=0.441

###

# test_details: Components of the Cytosolic LPS Sensing Pathway: Gene Identification via Genome-wide siRNA Screen;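 further: robust z of the log signal after scaling to non-targeting control siRNA wells of the plate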
# settings: RAW264.7 macrophages, IL-1a HTRF, actives lie on both sides, screened at 100 nM (by protocol), cells primed 5 h with Pam3CSK4 first
# Procedure: Non-canonical inflammasome activation by cytosolic LPS is a critical component of the host response to Gram-negative bacterial infection, however we lack a comprehensive understanding of the cellular processes that control this pathway. […] Lipofectamine RNAiMAX Transfection Reagent ([…]; Invitrogen) was added in […] serum-free, antibiotic-free media to plate wells using a Thermo Scientific Matrix WellMate and Microplate Stacker. […] The plates were read on an EnVision plate reader (PerkinElmer). […]
Screen size: about 53,000 sequences; about 3,700 (7%) were called active. This excerpt belongs to a sample that is enriched for actives.
Label Condition met when z-score >= 0.9; otherwise Condition not met.

sequence_input="GCAGUGGUAGAACAUCCAATT against Bhmt2" assigned_class="Condition not met"
sequence_input="GGAAGGGUCAGAAAAAUGUTT against Slc1a2" assigned_class="Condition not met"
sequence_input="GGUGUCAGCUUACCAUUCATT against Triap1" assigned_class="Condition not met"
sequence_input="GGUGCAGAAUGCAAUGGAUTT against Ing3" assigned_class="Condition met"
sequence_input="GGGUAUUCUGUGUGUUACUTT against Hsd3b1" assigned_class="Condition met"
sequence_input="GGACGACGACUUUUUAAAATT against Pnmal1" assigned_class="Condition met"
sequence_input="GCGACUACAAGGAUACCCUTT against Krt71" assigned_class="Condition not met"
sequence_input="CGUGUGGUGUUGGUAUCAGTT against Spaca1" assigned_class="Condition not met"
sequence_input="GGAACCUACUUGUUACCUUTT against Nlrp5" assigned_class="Condition not met"
sequence_input="GGAUGUAAAAUGCAGUUUATT against Tmsb4x" assigned_class="Condition not met"
sequence_input="GGAUGUAAAGAGGAAUCUCTT against Abca16" assigned_class="Condition not met"
sequence_input="GCUACACAUGGGAACUAACTT against 4631405J19Rik" assigned_class="Condition met"
sequence_input="GGAUUGGUUCAUGACCUGATT against Trim52" assigned_class="Condition not met"
sequence_input="GGAGAAGGAUGGAGUGUUUTT against Brms1l" assigned_class="Condition met"
sequence_input="GGAGGAUAUUGGAACUGCCTT against Lrrc26" assigned_class="Condition not met"

###

Reported z-score values for a set of sequences
# test_details: Components of the Cytosolic LPS Sensing Pathway: Gene Identification via Genome-wide siRNA Screen;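 further: robust z of the log signal after scaling to non-targeting control siRNA wells of the plate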
# settings: RAW264.7 macrophages, IL-1a HTRF, actives lie on both sides, screened at 100 nM (by protocol), cells primed 5 h with Pam3CSK4 first
Screen size: about 53,000 sequences; about 3,700 (7%) were called active. This is one part of a sample in which actives are shown more often than they occur.
measure: z-score

sequence_input="GCAGUGAAGUCCAAGUUAGTT against Pold3" reading="-0.456 (inactive)"
sequence_input="CCCAGACCAUACUACGGAUTT against Calb2" reading="-1.25 (inactive)"
sequence_input="GGCUAGCAUUAGCCACAGATT against Enpp3" reading="-2.33 (active)"
sequence_input="GGUCAAUGCUGUUUUUGUUTT against Mxi1" reading="2.41 (active)"
sequence_input="GGUCCAGAUCCACCAGAUUTT against Banp" reading="1.11 (inactive)"
sequence_input="GGAAAGCACCCAAGAAAUGTT against Gspt1" reading="-0.915 (inactive)"
sequence_input="GGAUACGAAAACGACUGCATT against Pdpr" reading="2.05 (active)"
sequence_input="GGAAAUGCCAUCGUCAUUUTT against Gpr1" reading="2.66 (active)"
sequence_input="GAAGCAGAACUUGAGCAAGTT against Phgdh" reading="2.07 (active)"
sequence_input="CCACCAUUUAUAUUUGGUUTT against Slc35g1" reading="-0.298 (inactive)"
sequence_input="GGUUCUAGAUGCUAAUAAGTT against Ciao3" reading="-0.381 (inactive)"
sequence_input="GGACAGCUACCUCAUCCAUTT against Lpcat3" reading="2.08 (active)"
sequence_input="GGCAUACUUGUACCGCUAUTT against Mmp9" reading="-0.35 (inactive)"
sequence_input="UGGCUGAUAUGAAGGUCUGTT against Krtap31-2" reading="0.154 (inactive)"
sequence_input="GGGCUAAUUGUGAACAUUUTT against Slc7a1" reading="3.35 (active)"
sequence_input="GGCUGCUGUCAUUAUUUGUTT against Terf2" reading="-0.768 (inactive)"
sequence_input="GGUUCAAAGUUCUAGCUAATT against Adss" reading="-0.25 (inactive)"
sequence_input="GGACACAUAAUGUCUACCUTT against Unc93a" reading="-0.629 (inactive)"
sequence_input="CGUUGCUGUUGUGGUCUUGTT against Olfr1232" reading="-2.71 (active)"
sequence_input="GCGAUACCGUGCCAUGUUUTT against Dohh" reading="-1.21 (inactive)"
sequence_input="CCCUCAAGGCUGAUAAACATT against Il17b" reading="-2.26 (active)"
sequence_input="GCCGCUACCUAUGAUGUCCTT against Kcne4" reading="0.385 (inactive)"
sequence_input="CGCAGACAAGAAAUGAAGGTT against Hnf4aos" reading="-1.98 (inactive)"
sequence_input="GCCUACAGGAGUGAGAUAATT against Arhgap33os" reading="-1.36 (inactive)"
sequence_input="GGCUGUCUUCAUCUUAGAUTT against Copz2" reading="-2.61 (active)"
sequence_input="CCUCAAAUUUUGGGUCUCATT against Bcat2" reading="-1.48 (inactive)"
sequence_input="GGCAUGCCUGUUGCUAUGATT against Cyp3a44" reading="0.182 (inactive)"
sequence_input="GGGCCUGCUCUCUUUUCUGTT against Mfsd14b" reading="1.18 (inactive)"
sequence_input="GGAAAAUUCAGGAAGUUUGTT against Magi3" reading="0.489 (inactive)"
sequence_input="CCUAAACUCAGUGCCUCAGTT against Mrps36" reading="0.579 (inactive)"
